Tested on: MCF7
measurement.notes: cells
condition.parameters: Homo sapiens, MCF7, light or radiation study
Description: Antiproliferative activity against human MCF7 cells assessed as inhibition of cell proliferation incubated for 48 hrs with 660 nm 0.4 W/cm2 light irradiation for 2 min at 6th hr of incubation time by MTT assay
readout.name: IC50 (nM)
Quick reminder: number only, in nM, skip the unit.

| structure.string | study.system | quantity.unit | IC50 |
| --- | --- | --- | --- |
| CCN(CC)c1ccc2nc3c4ccccc4/c(=N\CCCCC(=O)NCCCOc4ccc(C(=O)c5c(-c6ccc(O)cc6)sc6cc(O)ccc56)cc4)cc-3sc2c1 | MCF7 | nM | 930 |
| CCN(CC)c1ccc2nc3c4ccccc4/c(=N\CCC(=O)NCCCOc4ccc(C(=O)c5c(-c6ccc(O)cc6)sc6cc(O)ccc56)cc4)cc-3sc2c1 | MCF7 | nM | 3850 |

Proceeding to the next compound to report its IC50.
Send back MCF7 IC50 of CCN(CC)c1ccc2nc3c4ccccc4/c(=N\CCCCCCC(=O)NCCOc4ccc(C(=O)c5c(-c6ccc(O)cc6)sc6cc(O)ccc56)cc4)cc-3sc2c1 only.
290

---

System: MCF7
measurement.notes: cells
condition.parameters: Homo sapiens, MCF7, light or radiation study
Description: Antiproliferative activity against human MCF7 cells assessed as inhibition of cell proliferation incubated for 48 hrs with 660 nm 0.4 W/cm2 light irradiation for 1 min at 6th hr of incubation time by MTT assay
Reported IC50 by item:
Return type: number; implicit unit µM.

Example results:
| structure.string | IC50 / µM |
| --- | --- |
| CCN(CC)c1ccc2nc3c4ccccc4/c(=N\CCC(=O)NCCCOc4ccc(C(=O)c5c(-c6ccc(O)cc6)sc6cc(O)ccc56)cc4)cc-3sc2c1 | 5.53 |
| CCN(CC)c1ccc2nc3c4ccccc4/c(=N\CCCCC(=O)NCCCOc4ccc(C(=O)c5c(-c6ccc(O)cc6)sc6cc(O)ccc56)cc4)cc-3sc2c1 | 4.67 |

Please give measured IC50 of the following entry: CCN(CC)c1ccc2nc3c4ccccc4/c(=N\CCCCCCC(=O)NCCOc4ccc(C(=O)c5c(-c6ccc(O)cc6)sc6cc(O)ccc56)cc4)cc-3sc2c1
0.55

---

measurement.notes: in vivo
condition.parameters: Sprague-Dawley, rat, iv, 5 mg/kg
Description: Cmax in Sprague-Dawley rat at 5 mg/kg, iv measured after 0.5 to 168 hrs by LC-MS analysis
Cmax by entry:
Numeric answer only, unit ng/mL assumed.

| structure.string | result.value |
| --- | --- |
| CC/C(=C(\c1ccccc1)c1ccc(OCCN(C)C)cc1)c1ccccc1 | 15.9 |

Please examine the following record next.
Using known records, supply Cmax for CCN(CC)c1ccc2nc3c4ccccc4/c(=N\CCCCCCC(=O)NCCOc4ccc(C(=O)c5c(-c6ccc(O)cc6)sc6cc(O)ccc56)cc4)cc-3sc2c1
30.2

---

measurement.notes: in vivo
condition.parameters: Sprague-Dawley, rat, iv, 5 mg/kg
Description: Volume of distribution at steady state in Sprague-Dawley rat at 5 mg/kg, iv measured after 0.5 to 168 hrs by LC-MS analysis
Vd for assorted compounds
The response must be a number in L/kg with no trailing unit.

Give reported Vd value for CCN(CC)c1ccc2nc3c4ccccc4/c(=N\CCCCCCC(=O)NCCOc4ccc(C(=O)c5c(-c6ccc(O)cc6)sc6cc(O)ccc56)cc4)cc-3sc2c1
108

Supply Vd value. Item: CC/C(=C(\c1ccccc1)c1ccc(OCCN(C)C)cc1)c1ccccc1
221

---

measurement.notes: in vivo
condition.parameters: Sprague-Dawley, rat, iv, 5 mg/kg
Description: AUC (0 to infinity) in Sprague-Dawley rat at 5 mg/kg, iv measured after 0.5 to 168 hrs by LC-MS analysis
This listing pairs compounds with measured AUC(0-inf).
Just the number please, in ng·h/mL, no unit attached.

| structure.string | quantity.unit | AUC(0-inf) |
| --- | --- | --- |
| CCN(CC)c1ccc2nc3c4ccccc4/c(=N\CCCCCCC(=O)NCCOc4ccc(C(=O)c5c(-c6ccc(O)cc6)sc6cc(O)ccc56)cc4)cc-3sc2c1 | ng·h/mL | 279 |

Okay, now this compound:
Note down AUC(0-inf) recorded for CC/C(=C(\c1ccccc1)c1ccc(OCCN(C)C)cc1)c1ccccc1
295

---

Tested on: MCF7
measurement.notes: cells
condition.parameters: Homo sapiens, MCF7, light or radiation study
Description: Antiproliferative activity against human MCF7 cells assessed as inhibition of cell proliferation incubated for 48 hrs with 660 nm 0.4 W/cm2 light irradiation for 3 min at 6th hr of incubation time by MTT assay
Listed below: IC50 values for each entry.
Kindly answer with a numeric value in µM, unit omitted.

Please review the following examples before continuing.
| compound | study.system | quantity.unit | result.value |
| --- | --- | --- | --- |
| CCN(CC)c1ccc2nc3c4ccccc4/c(=N\CCC(=O)NCCCOc4ccc(C(=O)c5c(-c6ccc(O)cc6)sc6cc(O)ccc56)cc4)cc-3sc2c1 | MCF7 | µM | 1.78 |
| CN(C)c1ccc2nc3ccc(N(C)C)cc3[s+]c2c1 [METHYLENE BLUE ANHYDROUS] | MCF7 | µM | 14.1 |
| CCN(CC)c1ccc2nc3c4ccccc4/c(=N\CCCCC(=O)NCCCOc4ccc(C(=O)c5c(-c6ccc(O)cc6)sc6cc(O)ccc56)cc4)cc-3sc2c1 | MCF7 | µM | 0.72 |

Consider the additional compound presented here.
Identify the reported IC50 for the following entry. CCN(CC)c1ccc2nc3c4ccccc4/c(=N\CCCCCCC(=O)NCCOc4ccc(C(=O)c5c(-c6ccc(O)cc6)sc6cc(O)ccc56)cc4)cc-3sc2c1
0.2

---

Tested on: MCF7
measurement.notes: cells
condition.parameters: Homo sapiens, MCF7, light or radiation study
Description: Antiproliferative activity against human MCF7 cells assessed as inhibition of cell proliferation incubated for 48 hrs with 660 nm 0.4 W/cm2 light irradiation for 4 min at 6th hr of incubation time by MTT assay
readout.name: pIC50
# log scale: pIC50 equals minus log10 of the concentration in mol/L

Example results:
| compound | result.value |
| --- | --- |
| CCN(CC)c1ccc2nc3c4ccccc4/c(=N\CCC(=O)NCCCOc4ccc(C(=O)c5c(-c6ccc(O)cc6)sc6cc(O)ccc56)cc4)cc-3sc2c1 | 5.87 |
| CN(C)c1ccc2nc3ccc(N(C)C)cc3[s+]c2c1 [METHYLENE BLUE ANHYDROUS] | 5.17 |
| CCN(CC)c1ccc2nc3c4ccccc4/c(=N\CCCCC(=O)NCCCOc4ccc(C(=O)c5c(-c6ccc(O)cc6)sc6cc(O)ccc56)cc4)cc-3sc2c1 | 6.42 |

Consider the record given below.
For the compound CCN(CC)c1ccc2nc3c4ccccc4/c(=N\CCCCCCC(=O)NCCOc4ccc(C(=O)c5c(-c6ccc(O)cc6)sc6cc(O)ccc56)cc4)cc-3sc2c1 , give its reported pIC50.
6.80

---

measurement.notes: in vivo
condition.parameters: Sprague-Dawley, rat, po, 15 mg/kg
Description: Tmax in Sprague-Dawley rat at 15 mg/kg, po administered via gavage and measured after 0.5 to 168 hrs by LC-MS analysis
Attribute: Tmax
Use h as the unit, but write only the number.

| structure.string | quantity.unit | Tmax |
| --- | --- | --- |
| CCN(CC)c1ccc2nc3c4ccccc4/c(=N\CCCCCCC(=O)NCCOc4ccc(C(=O)c5c(-c6ccc(O)cc6)sc6cc(O)ccc56)cc4)cc-3sc2c1 | h | 6 |

Query compound follows.
Return reported Tmax. Input compound: CC/C(=C(\c1ccccc1)c1ccc(OCCN(C)C)cc1)c1ccccc1
16

---

measurement.notes: in vivo
condition.parameters: Sprague-Dawley, rat, po, 15 mg/kg
Description: AUC (0 to infinity) in Sprague-Dawley rat at 15 mg/kg, po administered via gavage and measured after 0.5 to 168 hrs by LC-MS analysis
The molecules listed here are annotated with their AUC(0-inf).

In one line, give reported AUC(0-inf) of the entry CCN(CC)c1ccc2nc3c4ccccc4/c(=N\CCCCCCC(=O)NCCOc4ccc(C(=O)c5c(-c6ccc(O)cc6)sc6cc(O)ccc56)cc4)cc-3sc2c1 .
357 ng·h/mL

Supply reported AUC(0-inf) belonging to this molecule: CC/C(=C(\c1ccccc1)c1ccc(OCCN(C)C)cc1)c1ccccc1 [TAMOXIFEN]
311 ng·h/mL
